Recorded Fibril formation by entry
biological target: Transthyretin (Homo sapiens); test: Transthyretin (TTR) amyloidogenesis inhibition activity by employing an acid-mediated (pH 4.4) WTTTR amyloid fibril formation assay, at 7.2 uM conc.; type: functional
observable: Fibril formation

{"columns": ["cpd.smiles", "result"],
 "data": [
  ["COc1ccc(-c2ccc(F)cc2F)cc1C(=O)O", "69.9%"],
  ["O=C(O)c1ccc(-c2ccccc2)cc1", "14.3%"],
  ["O=C(O)c1cc(-c2ccccc2)ccc1O", "15.4%"],
  ["Oc1cccc(-c2cc(F)cc(F)c2)c1", "10.2%"],
  ["O=Cc1ccc(-c2cc(Cl)cc(Cl)c2)cc1", "25.4%"],
  ["COC(=O)c1cc(-c2ccc(F)cc2F)ccc1O", "38.5%"],
  ["OCc1cccc(-c2cc(Cl)cc(Cl)c2)c1", "3.3%"],
  ["OCc1ccccc1-c1cc(Cl)cc(Cl)c1", "7.7%"],
  ["O=C(O)c1cccc(-c2cc(F)cc(F)c2)c1", "5.6%"],
  ["Oc1ccc(-c2cc(F)cc(F)c2)cc1", "16.4%"],
  ["OCc1ccc(-c2ccccc2)cc1", "100%"],
  ["Fc1ccccc1-c1ccccc1", "99.4%"]
]}
